Values were extracted from patent US20180094053A1.

- target.desc: Recombinant human IL-2 (human, UniProt P60568 21-153)
- assay.overview: cell-based or functional assay
outcome.measure: Fold EC50 shift of IL-2-induced proliferation, BaF3/IL-2 HuRβγ

binder: XPA.92.042 (antibody, V domains shown, Tested as purified full-length human IgG) VH: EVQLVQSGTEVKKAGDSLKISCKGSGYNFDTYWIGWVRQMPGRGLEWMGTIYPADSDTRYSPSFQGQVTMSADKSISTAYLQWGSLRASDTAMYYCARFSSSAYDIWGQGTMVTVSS VL: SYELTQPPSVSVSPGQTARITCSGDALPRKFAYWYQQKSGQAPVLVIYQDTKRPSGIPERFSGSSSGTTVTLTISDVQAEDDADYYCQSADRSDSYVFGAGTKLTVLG
result: 5 fold

binder: XPA.92.099 (antibody, V domains shown, Tested as purified full-length human IgG; also called mAb99; clone 99) VH: QVQLVESGGGLVKPGRSLRLSCAASGFTFNRYAMSWVRQAPGKGLEWVAMISFDGGNQYYTDSVSGRFTISRDNSKTTLFLQMDSLRTEDTAVYYCVRSPAGDWVAYFDYWGQGTLVTVSS VL: DIQMTQSPSSLSASIGDRVTIPCQASEDISNHLSWYQQKPGKAPKPLIFDASDLETGVPSRFSGSGSGTDFALTISSLRPDDFATYYCHQYHDYPSYTFGHGTKLEIKR
result: 2.4 fold

binder: XPA.92.041 (antibody, V domains shown, Tested as purified full-length human IgG) VH: EVQLVQSGAEVKKPGESLKISCKGSGYNFDTYWIGWVRQMPGRGLEWMGTIYPADSDTRYSPSFQGQVTTSADKSISTAYLQWGSLRASDTAMYYCARFSSSAYDIWGQGTMVTVSS VL: SYELTQPPSVSVSPGQTARITCSGDALPRQFAYWYQQKPGQAPVLVIYKDTERPSGIPERFSGSSSGTTVTLTISGVQAEDEADYYCQSADSSGTYHVFGGGTQLTVLG
result: 3.9 fold

binder: XPA.92.019 (antibody, V domains shown, Tested as purified full-length human IgG; also called mAb19) VH: EVQLVESGGGLVQPGRSLRLSCAASGFTFSYYGMHWVRQAPGKGLEWVADISNDGSNKYYADSVKGRFTISRDNSKTTLYLQMNSLRPEDTAVYYCATPYYDSSGLDYWGQGTLVTVSS VL: SYELTQPPSVSVSPGQTARITCSGDALPKRFAYWYQQKAGQAPVLVIYEDNKRPSGIPETLSGSSSGTTATLTISGAQEEDEADYYCYSTDNTGGLWVFGGGTKLTVLG
result: 5.2 fold
